# protocol.summary: Microsomal stability in human liver microsomes
# Format: in vitro ADME
# experimental.context: pH 7.4, 1 µM
parameter.measured: microsomal CLint at 1 µM (µL/min/mg)
# unit: µL/min/mg | format: bare number

-- ask Can you share its microsomal CLint at 1 µM? I mean this molecule: CC[C@@H]1C2C[C@H](O)CC[C@]2(C)C2CC[C@@]3(C)C(CC[C@@H]3[C@H](C)CCOC(=O)C(C)(C)Oc3ccc(Cl)cc3)C2[C@@H]1O (stereo partly shown)
-- reply 87

----------
# test.system: GPBAR1 (Homo sapiens, UniProt Q8TDU6)
# Construct: expressed in transfected cells; host or cells: HEK-293T
# Sequence (Q8TDU6 1-330): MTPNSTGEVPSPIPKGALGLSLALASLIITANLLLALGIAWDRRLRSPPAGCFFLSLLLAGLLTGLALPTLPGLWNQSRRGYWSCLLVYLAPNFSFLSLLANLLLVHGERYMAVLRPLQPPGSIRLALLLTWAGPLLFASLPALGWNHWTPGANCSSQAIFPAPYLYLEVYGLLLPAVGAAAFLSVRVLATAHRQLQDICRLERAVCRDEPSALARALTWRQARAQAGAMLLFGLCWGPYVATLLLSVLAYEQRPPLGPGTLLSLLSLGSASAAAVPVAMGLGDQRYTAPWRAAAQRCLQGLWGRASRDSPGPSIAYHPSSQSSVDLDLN
# protocol.summary: GPBAR1 transactivation (CRE-luciferase reporter) assay in HEK-293T cells
# Type: cell-based
# experimental.context: 18 h; transactivation on HEK-293T cells; TLCA 10 μM = 100%; read-out: GPBAR1 efficacy (% vs. TLCA)
# Procedure: HepG2 and HEK-293T cells were cultured at 37 °C in minimal essential medium (MEM) and Dulbecco’s Modified Eagle Medium (DMEM) respectively, supplemented with 10% fetal bovine serum, 1% L-glutamine, 100 U/mL penicillin, and 100 μg/mL streptomycin. […] Luminescence was measured using Glomax 20/20 luminometer (Promega). […]
Decision: Emax >= 50% yields 1, all other cases yield 0.

Worked examples follow.
1. CC[C@@H]1C2C[C@H](OC(=O)C(C)(C)Oc3ccc(Cl)cc3)CC[C@]2(C)C2CC[C@@]3(C)C(CC[C@@H]3[C@H](C)CCOC(=O)C(C)(C)Oc3ccc(Cl)cc3)C2[C@@H]1O (some centres unmarked) :: 1
2. CC[C@@H]1C2C[C@H](OC(=O)C(C)(C)Oc3ccc(Cl)cc3)CC[C@]2(C)C2CC[C@@]3(C)C(CC[C@@H]3[C@H](C)CCO)C2[C@@H]1O (some centres unmarked) :: 0
3. CC[C@@H]1C2C[C@H](OC(=O)C(C)(C)CCCOc3cc(C)ccc3C)CC[C@]2(C)C2CC[C@@]3(C)C(CC[C@@H]3[C@H](C)CCO)C2[C@@H]1O (some centres unmarked) :: 0

-- ask Identify whether the reported Emax of the following compound is 50% or greater: CC[C@@H]1C2C[C@H](O)CC[C@]2(C)C2CC[C@@]3(C)C(CC[C@@H]3[C@H](C)CCOC(=O)C(C)(C)CCCOc3cc(C)ccc3C)C2[C@@H]1O (some centres unmarked)
-- reply 0

-- ask Do the same for CC[C@@H]1C2C[C@H](O)CC[C@]2(C)C2CC[C@@]3(C)C(CC[C@@H]3[C@H](C)CCOC(=O)C(C)(C)Oc3ccc(C(=O)c4ccc(Cl)cc4)cc3)C2[C@@H]1O (some centres unmarked) please
-- reply 0

Cited source: paper PMC11289669
